# Test system: BCL2 G101V
# test-details: TR-FRET competitive binding assay, BCL2 G101V
# Parameters: species or system human
# condition-notes: ratio Ki BCL2 G101V / Ki BCL2 WT
measured-quantity: TR_FRET EKI G101V/WT selectivty ratio
The response must contain the number and no unit.

Examples from the recorded data:
>>> recorded_measurement("Cc1c(N(C(=O)c2cc(-c3cc4c(cc3C(=O)N3Cc5ccccc5C[C@H]3C)CN(C(=O)Cc3ccc(OCCN(C)C5COC5)cc3)CC4)n(C)c2C)c2ccc(O)cc2)cc(C#N)n1C")
3.5
>>> recorded_measurement("Cc1c(C(=O)N(c2ccc(O)cc2)c2cc(C#N)n(C(F)F)c2C)cc(-c2cc3c(cc2C(=O)N2Cc4ccccc4C[C@H]2C)CN(C(=O)Cc2ccc(OCCN4CCOCC4)cc2)CC3)n1C")
3.2
>>> recorded_measurement("Cc1c(N(C(=O)c2cc(-c3cc4c(cc3C(=O)N3Cc5ccccc5C[C@H]3CN3CCCC3)CN(C(=O)Cc3ccc(OCCN5CCOCC5)cc3F)CC4)n(C)c2C)c2ccc(O)cc2)cc(C#N)n1C")
8.9
>>> recorded_measurement("Cc1c(N(C(=O)c2cc(-c3cc4c(cc3C(=O)N3Cc5ccccc5C[C@H]3CN3CC[C@@H](C)C3)CN(C(=O)Cc3ccc(OCCN5CCOCC5)cc3F)CC4)n(C)c2C)c2ccc(O)cc2)cc(C#N)n1C")
4.0

Below: the item to evaluate.
Input Cc1c(N(C(=O)c2cc(-c3cc4c(cc3C(=O)N3Cc5ccccc5C[C@H]3CN3CCCC[C@H]3C)CN(C(=O)Cc3ccc(OCCN5CCOCC5)cc3F)CC4)n(C)c2C)c2ccc(O)cc2)cc(C#N)n1C . Output TR_FRET EKI G101V/WT selectivty ratio: 4.2
